Conditions: human gut metagenome, 24 h, 2 µM; also: call rule not given here
property measured: Bacterial Biotransformation

Known Bacterial Biotransformation results, listed for orientation:
molecule: CN(C(=O)CN(CCO)CC(=O)N(C)C(C)(C)Cc1ccccc1)C(C)(C)Cc1ccccc1
Bacterial Biotransformation: Compound metabolized
--
molecule: CCN(CC)CCOCCOC(=O)C1(c2ccccc2)CCCC1.O=C(O)CC(O)(CC(=O)O)C(=O)O [CARBETAPENTANE CITRATE]
Bacterial Biotransformation: Compound metabolized
--
molecule: COCCc1ccc(OCC(O)CNC(C)C)cc1.COCCc1ccc(OCC(O)CNC(C)C)cc1.O=C(O)C(O)C(O)C(=O)O (stereo unspecified) [METOPROLOL TARTRATE]
Bacterial Biotransformation: Compound NOT metabolized
--
molecule: Cc1nc2n(c(=O)c1CCN1CCC(c3noc4cc(F)ccc34)CC1)CCCC2
Bacterial Biotransformation: Compound metabolized

Noted for CCCC1O[C@@H]2C[C@H]3[C@@H]4CCC5=CC(=O)C=C[C@]5(C)[C@H]4[C@@H](O)C[C@]3(C)[C@]2(C(=O)CO)O1 (stereo partly specified) [BUDESONIDE] : its Bacterial Biotransformation reads Compound metabolized

Noted for "CCOC(=O)[C@H](CCc1ccccc1)N[C@@H](C)C(=O)N1[C@H](C(=O)O)C[C@H]2CCCC[C@@H]21" : its Bacterial Biotransformation reads Compound metabolized

Noted for "CCCCCOC(=O)Nc1nc(=O)n([C@@H]2O[C@H](C)[C@@H](O)[C@H]2O)cc1F" : its Bacterial Biotransformation reads Compound metabolized

Noted for "OC(Cn1cncn1)(Cn1cncn1)c1ccc(F)cc1F" : its Bacterial Biotransformation reads Compound NOT metabolized

Noted for "Cc1cn([C@H]2C[C@H](N=[N+]=[N-])[C@@H](CO)O2)c(=O)[nH]c1=O" : its Bacterial Biotransformation reads Compound NOT metabolized

Noted for COC(=O)C1=C(C)NC(C)=C(C(=O)OC(C)C)C1c1cccc2nonc12 (stereo unspecified) : its Bacterial Biotransformation reads Compound NOT metabolized

Noted for "CNC(=C[N+](=O)[O-])NCCSCc1ccc(CN(C)C)o1" : its Bacterial Biotransformation reads Compound metabolized

Noted for CN(C)CC(c1ccc(O)cc1)C1(O)CCCCC1.O=C(O)CCC(=O)O (stereo unspecified) [DESVENLAFAXINE SUCCINATE] : its Bacterial Biotransformation reads Compound NOT metabolized

Noted for "COc1ccc2c(c1OC)C(=O)O[C@@H]2[C@H]1c2c(cc3c(c2OC)OCO3)CCN1C" : its Bacterial Biotransformation reads Compound metabolized

Noted for "CN(C)CCC=C1c2ccccc2C=Cc2ccccc21" : its Bacterial Biotransformation reads Compound metabolized

Noted for "CCc1nn(CCCN2CCN(c3cccc(Cl)c3)CC2)c(=O)n1CCOc1ccccc1" : its Bacterial Biotransformation reads Compound NOT metabolized

Noted for Cc1ccc(S(=O)(=O)NC(=O)NN2CCCCCC2)cc1 [TOLAZAMIDE] : its Bacterial Biotransformation reads Compound metabolized

====

Assay: The drug is tested on WLS-240 corresponding to human gut metagenome with ENA study accession number: PRJEB37062 and ENA sample accession number: ERS12561773 for biotransformation under anaerobic condition. The drug concentrations were measured over 9 timepoints collected between 0 and 24 hours of incubation by liquid-chromatography-coupled mass spectrometry (LC–MS)
Conditions: 2 µM
property measured: Bacterial Biotransformation

Known Bacterial Biotransformation results, listed for orientation:
molecule: O=C(O)COCCN1CCN(C(c2ccccc2)c2ccc(Cl)cc2)CC1 (centres undefined)
meas value: Compound metabolized
//
molecule: CCCc1nn(C)c2c(=O)[nH]c(-c3cc(S(=O)(=O)N4CCN(C)CC4)ccc3OCC)nc12.O=C(O)CC(O)(CC(=O)O)C(=O)O [SILDENAFIL CITRATE]
meas value: Compound metabolized
//
molecule: Nc1c2c(nc3ccccc13)CCCC2
meas value: Compound metabolized
//
molecule: CN1CCN(C2=Nc3cc(Cl)ccc3Nc3ccccc32)CC1
meas value: Compound metabolized
//
molecule: COc1ccccc1OCC(O)CN1CCN(CC(=O)Nc2c(C)cccc2C)CC1 (centres undefined)
meas value: Compound NOT metabolized

Noted for "COc1cc2c(c(OC)c1OC)-c1ccc(OC)c(=O)cc1[C@@H](NC(C)=O)CC2" : its Bacterial Biotransformation reads Compound metabolized

Noted for "Cc1cc2c(cc1S(N)(=O)=O)S(=O)(=O)CCC2" : its Bacterial Biotransformation reads Compound NOT metabolized

Noted for CCN(CC)CCNC(C(=O)OCCC(C)C)c1ccccc1.Cl.Cl (centres undefined) : its Bacterial Biotransformation reads Compound metabolized

Noted for "CCCc1nc(C(C)(C)O)c(C(=O)OCc2oc(=O)oc2C)n1Cc1ccc(-c2ccccc2-c2nnn[nH]2)cc1" : its Bacterial Biotransformation reads Compound NOT metabolized

Noted for CC(C)NCC(O)COc1ccc(COCCOC(C)C)cc1.CC(C)NCC(O)COc1ccc(COCCOC(C)C)cc1.O=C(O)/C=C/C(=O)O (centres undefined) [BISOPROLOL FUMARATE] : its Bacterial Biotransformation reads Compound metabolized

Noted for "CN1CCN(C(=O)O[C@H]2c3nccnc3C(=O)N2c2ccc(Cl)cn2)CC1" : its Bacterial Biotransformation reads Compound NOT metabolized

Noted for "CC(=O)OCC(=O)[C@@]12N=C(C)O[C@@H]1C[C@H]1[C@@H]3CCC4=CC(=O)C=C[C@]4(C)[C@H]3[C@@H](O)C[C@@]12C" : its Bacterial Biotransformation reads Compound metabolized

Noted for CCN(CC)CCOC(=O)C(Cc1cccc2ccccc12)CC1CCCO1.O=C(O)C(=O)O (centres undefined) [NAFRONYL OXALATE] : its Bacterial Biotransformation reads Compound metabolized

Noted for "Cc1ccnc2c1NC(=O)c1cccnc1N2C1CC1" : its Bacterial Biotransformation reads Compound metabolized

Noted for O=C1NCC2(CCN(CCc3ccccc3)CC2)O1 [FENSPIRIDE] : its Bacterial Biotransformation reads Compound NOT metabolized

Noted for "CN1CCc2c(c3ccccc3n2Cc2ccccc2)C1.CN1CCc2c(c3ccccc3n2Cc2ccccc2)C1.O=S(=O)(O)c1cccc2c(S(=O)(=O)O)cccc12" : its Bacterial Biotransformation reads Compound NOT metabolized

Noted for CC(=O)OCC(=O)[C@@]1(O)[C@@H](C)C[C@H]2[C@@H]3CCC4=CC(=O)C=C[C@]4(C)[C@@]3(F)[C@@H](O)C[C@@]21C [BETAMETHASONE ACETATE] : its Bacterial Biotransformation reads Compound metabolized

Noted for CC(O)(CS(=O)(=O)c1ccc(F)cc1)C(=O)Nc1ccc(C#N)c(C(F)(F)F)c1 (centres undefined) [BICALUTAMIDE] : its Bacterial Biotransformation reads Compound NOT metabolized

Noted for "CN(C(=O)CN(CCO)CC(=O)N(C)C(C)(C)Cc1ccccc1)C(C)(C)Cc1ccccc1" : its Bacterial Biotransformation reads Compound metabolized

Noted for "COc1ccc2c3c1O[C@H]1C[C@@H](O)C=C[C@@]31CCN(C)C2" : its Bacterial Biotransformation reads Compound metabolized

Noted for "CN/C(=N/CCSCc1nc[nH]c1C)NC#N" : its Bacterial Biotransformation reads Compound metabolized

Noted for "Cc1nc2n(c(=O)c1CCN1CCC(c3noc4cc(F)ccc34)CC1)CCCC2" : its Bacterial Biotransformation reads Compound metabolized

Noted for OC(CCN1CCCCC1)(c1ccccc1)C1CC2C=CC1C2 (centres undefined) : its Bacterial Biotransformation reads Compound NOT metabolized

====

Details: human gut metagenome, 24 h, 2 µM
property measured: Bacterial Biotransformation

Known Bacterial Biotransformation results, listed for orientation:
molecule: CCCC(=O)Nc1ccc(OCC(O)CNC(C)C)c(C(C)=O)c1 (stereo not drawn)
Bacterial Biotransformation: Compound metabolized
//
molecule: COc1c2occc2cc2ccc(=O)oc12
Bacterial Biotransformation: Compound metabolized
//
molecule: O=c1[nH]c2ccccc2n1C1CCN(CCCC(c2ccc(F)cc2)c2ccc(F)cc2)CC1 [PIMOZIDE]
Bacterial Biotransformation: Compound metabolized
//
molecule: CN1CC(=O)N2[C@H](c3ccc4c(c3)OCO4)c3[nH]c4ccccc4c3C[C@@H]2C1=O
Bacterial Biotransformation: Compound metabolized
//
molecule: CS(=O)(=O)O.O.O.O.O=C1Cc2cc(CCN3CCN(c4nsc5ccccc45)CC3)c(Cl)cc2N1 [ZIPRASIDONE MESYLATE]
Bacterial Biotransformation: Compound NOT metabolized

Noted for COCCc1ccc(OCC(O)CNC(C)C)cc1.COCCc1ccc(OCC(O)CNC(C)C)cc1.O=C(O)C(O)C(O)C(=O)O (stereo not drawn) [METOPROLOL TARTRATE] : its Bacterial Biotransformation reads Compound metabolized

Noted for "CCOC(=O)[C@H](CCc1ccccc1)N[C@@H](C)C(=O)N1[C@H](C(=O)O)C[C@@H]2CCC[C@@H]21" : its Bacterial Biotransformation reads Compound metabolized

Noted for "CN1CCN(C(=O)O[C@H]2c3nccnc3C(=O)N2c2ccc(Cl)cn2)CC1" : its Bacterial Biotransformation reads Compound NOT metabolized

====

Conditions: human gut metagenome, 24 h, 2 µM
property measured: Bacterial Biotransformation

Known Bacterial Biotransformation results, listed for orientation:
molecule: CCN(CC)C(C)CN1c2ccccc2Sc2ccccc21 (stereo not given)
Bacterial Biotransformation: Compound metabolized
--
molecule: COc1c(C)c2c(c(O)c1C/C=C(\C)CCC(=O)OCCN1CCOCC1)C(=O)OC2 [MYCOPHENOLATE MOFETIL]
Bacterial Biotransformation: Compound metabolized
--
molecule: CCOC(=O)[C@H](CCc1ccccc1)N[C@@H](C)C(=O)N1[C@H](C(=O)O)C[C@@H]2CCC[C@@H]21
Bacterial Biotransformation: Compound NOT metabolized
--
molecule: Fc1ccc([C@@H]2CCNC[C@H]2COc2ccc3c(c2)OCO3)cc1
Bacterial Biotransformation: Compound NOT metabolized

Consider the record given below.
Noted for "Cc1cc2c(cc1S(N)(=O)=O)S(=O)(=O)CCC2" : its Bacterial Biotransformation reads Compound NOT metabolized
